B1: Hairpin Ribozyme (parent)
chain: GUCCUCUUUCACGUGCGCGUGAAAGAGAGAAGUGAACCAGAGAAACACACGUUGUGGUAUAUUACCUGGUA

# Variants of: B1
# assayExplanation: self-cleavage, relative activity (ratio to wild type); higher = more cleavage; co-transcriptional
Is self-cleavage at least 0.3? Then satisfied. If not, not satisfied.

Input line: Textbook exercise: given the entry GUCCUCUUUCACGUGCGCGCGAAAGAGAGAAGUGAACCCGAGAAACACACGUUGUGGUAUAUUACCUGGUA [U20C A39C] , state whether its self-cleavage is greater than or equal to 0.3.
Output line: satisfied

Input line: Textbook exercise: given the entry GUCCCCUUUCACGUGCGCGUGAAAGAGAGAAGUGAACCAGAGAAACACACGUUGUGGUAUAUUACCUUGUA [U5C G68U] , state whether its self-cleavage is greater than or equal to 0.3.
Output line: not satisfied

Input line: Textbook exercise: given the entry GUCCUCUUUCACGUGCGCUUGAAAGAGAAAAGUGAACCAGAGAAACACACGUUGUGGUAUAUUACCUGGUA [G19U G29A] , state whether its self-cleavage is greater than or equal to 0.3.
Output line: not satisfied

Input line: Textbook exercise: given the entry GUCCUCUUUCACGUCCGCGUGAAAGAGAGAAGUGAACCAGACAAACACACGUUGUGGUAUAUUACCUGGUA [G15C G42C] , state whether its self-cleavage is greater than or equal to 0.3.
Output line: satisfied

Input line: Textbook exercise: given the entry GUCCACUUUCACGUGCGCGUGAAAGAGAGAAGUGAACCAGAGAAACACACCUUGUGGUAUAUUACCUGGUA [U5A G51C] , state whether its self-cleavage is greater than or equal to 0.3.
Output line: satisfied

Values were extracted from the RNAGym collection of RNA variant scans (doi:10.7554/elife.80360).
